Measured values drawn from ChEMBL document CHEMBL1687890 for this set.

TARGET: Mu-type opioid receptor (Rattus norvegicus) (UniProt P33535)
Sequence (P33535 whole entry): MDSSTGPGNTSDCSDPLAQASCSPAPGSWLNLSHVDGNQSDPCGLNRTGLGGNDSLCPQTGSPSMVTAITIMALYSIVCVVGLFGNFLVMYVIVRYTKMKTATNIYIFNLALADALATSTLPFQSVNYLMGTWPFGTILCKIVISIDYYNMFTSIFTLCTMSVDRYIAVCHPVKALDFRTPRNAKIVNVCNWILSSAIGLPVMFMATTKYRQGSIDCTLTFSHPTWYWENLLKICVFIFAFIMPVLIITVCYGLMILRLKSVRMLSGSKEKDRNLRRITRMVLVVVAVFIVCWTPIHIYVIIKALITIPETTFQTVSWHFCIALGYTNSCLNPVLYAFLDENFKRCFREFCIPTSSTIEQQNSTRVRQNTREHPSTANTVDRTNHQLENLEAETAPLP
MEASUREMENT DESCRIPTION: Agonist activity at mu opioid receptor in rat brain membrane by [35S]GTPgammaS binding assay relative to baseline
Type: functional, cell membranes
Overview of recorded Emax for various compounds

COMPOUND	TARGET	Emax [%]
C[C@@H](c1ccccc1)[C@H](NC(=O)[C@H](Cc1c[nH]c2ccccc12)NC(=O)[C@H]1CCCC[C@H]1NC(=O)[C@@H](N)Cc1ccc(O)cc1)C(N)=O	Mu-type opioid receptor (Rattus norvegicus) (UniProt P33535)	162
C[C@@H](NC(=O)[C@@H](N)Cc1ccc(O)cc1)C(=O)NCC(=O)N(C)[C@@H](Cc1ccccc1)C(=O)NCCO	Mu-type opioid receptor (Rattus norvegicus) (UniProt P33535)	178
Cc1cc(CC(N)C(=O)N[C@@H]2CCCC[C@@H]2C(=O)N[C@@H](Cc2ccccc2)C(=O)N[C@H](C(N)=O)[C@@H](C)c2ccccc2)cc(C)c1O (stereo partly drawn)	Mu-type opioid receptor (Rattus norvegicus) (UniProt P33535)	159
